Reported melting point values are given for each entry in this list.
Where a name gives a salt, the structure may show the parent alone.

{"compound": "C[C@]1(c2cc(NC(=O)c3ncc(Cl)cc3Cl)ccc2F)N=C(N)CO[C@@]1(F)C(F)(F)F [Compound 181]", "comparison.operator": "=", "melting point / °C": 200.16}
{"compound": "C[C@]1(c2cc(-c3cncc(Cl)c3)c(F)cc2F)N=C(N)CO[C@H]1C(F)(F)F [Compound 255]", "comparison.operator": "=", "melting point / °C": 141.4}
{"compound": "C[C@]1(c2cc(-c3cncnc3)c(F)cc2F)N=C(N)CO[C@@H]1F (single isomer, unassigned) [Compound 148]", "comparison.operator": "=", "melting point / °C": 186.2}
{"compound": "CC1(c2cc(NC(=O)c3ncc(Cl)cc3Cl)ccc2F)N=C(N)COC1F (single isomer, unassigned) [Compound 126]", "comparison.operator": "=", "melting point / °C": 94.6}
{"compound": "C[C@]1(c2cc(-c3cncc(C#N)c3)c(F)cc2F)N=C(N)CO[C@@H]1C(F)(F)F [Compound 317]", "comparison.operator": "=", "melting point / °C": 177.94}
{"compound": "C[C@@]1(c2cccc(-c3cncnc3)c2)COC2(CC2)C(N)=N1 (as salt: fumarate) [Compound 74]", "comparison.operator": "=", "melting point / °C": 193.3}
{"compound": "CC1(c2cccc(NC(=O)c3ncc(Cl)cc3F)c2)N=C(N)COC1(F)C(F)(F)F (single isomer, unassigned) [Compound 172]", "comparison.operator": "=", "melting point / °C": 180.17}
{"compound": "CC1(c2cc(NC(=O)c3ccc(Cl)cn3)cc(C(F)(F)F)c2)COCC(N)=N1 (stereo not drawn) [Compound 197]", "comparison.operator": "=", "melting point / °C": 175.32}
{"compound": "C[C@]1(c2cc(-c3cncnc3)c(F)cc2F)N=C(N)CO[C@]1(F)C(F)(F)F [Compound 210]", "comparison.operator": ">", "melting point / °C": 300}
{"compound": "COc1cnc(C(=O)Nc2ccc(F)c([C@@]3(C)N=C(N)CO[C@]3(F)C(F)(F)F)c2)cn1 [Compound 184]", "comparison.operator": "=", "melting point / °C": 198.43}
{"compound": "C[C@]1(c2cc(-c3cncnc3)c(F)cc2F)N=C(N)CO[C@@]1(F)C(F)(F)F [Compound 211]", "comparison.operator": "=", "melting point / °C": 62}
{"compound": "CC1(c2cccc(NC(=O)c3ccc(Cl)cn3)c2)COC(F)(C(F)(F)F)C(N)=N1 (racemic) [Compound 9]", "comparison.operator": "=", "melting point / °C": 193.3}
{"compound": "CC1(c2cccc(NC(=O)c3ccc(Cl)cn3)c2)N=C(N)COC1(F)C(F)(F)F (single isomer, unassigned) [Compound 112]", "comparison.operator": "=", "melting point / °C": 207.3}
{"compound": "CC1(c2cc(-c3cncnc3)ccc2F)N=C(N)COC1C(F)(F)F (single isomer, unassigned) [Compound 106]", "comparison.operator": "=", "melting point / °C": 173.8}
{"compound": "CC1(c2cccc(NC(=O)c3ccncn3)c2)N=C(N)COC1(F)C(F)(F)F (single isomer, unassigned) [Compound 187]", "comparison.operator": "=", "melting point / °C": 189.64}

Ref: patent US9828350B2
